target: T1, CD3 expressed on cell-surface of primary human T cells (human, UniProt P07766 23-207; P04234 22-171); assay: flow cytometry competition vs murine SP34-AF488 on human T cells, average
T1 construct: also called cell-surface CD3; human CD3
T1 sequence (P07766 23-207 limits assumed, chain 1 of 2): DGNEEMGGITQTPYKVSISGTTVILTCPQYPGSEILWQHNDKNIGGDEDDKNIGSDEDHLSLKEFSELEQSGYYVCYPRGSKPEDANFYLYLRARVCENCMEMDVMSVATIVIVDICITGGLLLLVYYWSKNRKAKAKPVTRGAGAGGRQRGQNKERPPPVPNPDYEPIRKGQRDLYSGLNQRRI
T1 sequence (P04234 22-171 limits assumed, chain 2 of 2): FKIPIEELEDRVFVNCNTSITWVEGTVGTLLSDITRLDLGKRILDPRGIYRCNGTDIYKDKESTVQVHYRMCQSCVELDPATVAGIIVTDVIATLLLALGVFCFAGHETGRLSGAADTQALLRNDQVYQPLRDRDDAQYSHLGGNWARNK
quantity: IC50 (µg/mL)

1. huSP34.3.1 Fab-HF (Fab, V domains shown) VH: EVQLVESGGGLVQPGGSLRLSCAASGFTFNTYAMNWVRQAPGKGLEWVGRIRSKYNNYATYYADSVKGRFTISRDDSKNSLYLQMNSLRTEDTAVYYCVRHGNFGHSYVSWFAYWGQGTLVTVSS VL: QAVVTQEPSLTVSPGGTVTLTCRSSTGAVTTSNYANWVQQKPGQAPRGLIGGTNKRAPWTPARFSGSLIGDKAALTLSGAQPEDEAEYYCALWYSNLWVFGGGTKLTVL
2.89
2. huSP34.2.1 Fab-HF (Fab, V domains shown) VH: EVQLVESGGGLVQPGGSLRLSCAASGFTFSTYAMNWVRQAPGKGLEWVGRIRSKYNNYATYYAASVKGRFTISRDDSKNSLYLQMNSLKTEDTAMYYCVRHGNFGNSYVSWFAVWGQGTLVTVSS VL: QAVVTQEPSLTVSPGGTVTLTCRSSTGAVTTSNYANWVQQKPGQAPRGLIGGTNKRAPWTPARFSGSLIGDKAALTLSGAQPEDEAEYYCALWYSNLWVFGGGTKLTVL
4.92
